- Test system: RKO
- assay: Cytotoxicity against human RKO cells after 48 hrs by XTT assay
- Type: functional, cell-based
Assignment: determine reported pIC50 for the given compounds.
Worth noting: pIC50 values are minus log10 of concentrations stated in mol/L.

What value of pIC50 has been recorded for this entry: `COc1ccc(S(=O)(=O)Oc2c3ccccc3cc3ccccc23)cc1` 6.55

What value of pIC50 has been recorded for this entry: `COc1ccc(S(=O)(=O)Oc2c3ccccc3cc3sccc23)cc1` 6.74

* * *

Assignment: determine reported Activity for the given molecules.
- assay: Cell cycle arrest in KB/HeLa cells assessed as accumulation at G2M phase at 100 nM after 24 hrs by flow cytometric analysis
- Type: functional, cell-based
- conditions.used: Homo sapiens
Please format your answer as a value with the unit trailing.

What value of Activity has been recorded for this entry: COC(=O)Nc1nc2cc(C(=O)c3cccs3)ccc2[nH]1 [NOCODAZOLE] 51.4%

What value of Activity has been recorded for this entry: `COc1ccc(S(=O)(=O)Oc2c3ccccc3cc3ccccc23)cc1` 12.6%

What value of Activity has been recorded for this entry: CC[C@]1(O)C[C@H]2CN(CCc3c([nH]c4ccccc34)[C@@](C(=O)OC)(c3cc4c(cc3OC)N(C=O)[C@H]3[C@@](O)(C(=O)OC)[C@H](OC(C)=O)[C@]5(CC)C=CCN6CC[C@]43[C@@H]65)C2)C1 [VINCRISTINE] 95.1%

What value of Activity has been recorded for this entry: COc1cc2c(c(OC)c1OC)-c1ccc(OC)c(=O)cc1[C@@H](NC(C)=O)CC2 [COLCHICINE] 94.7%

What value of Activity has been recorded for this entry: CC(=O)O[C@H]1C(=O)[C@@]2(C)[C@H]([C@H](OC(=O)c3ccccc3)[C@]3(O)C[C@H](OC(=O)[C@H](O)[C@@H](NC(=O)c4ccccc4)c4ccccc4)C(C)=C1C3(C)C)[C@]1(OC(C)=O)CO[C@@H]1C[C@@H]2O [PACLITAXEL] 87.8%

What value of Activity has been recorded for this entry: `COc1ccc(S(=O)(=O)Oc2c3ccccc3cc3sccc23)cc1` 16.7%

* * *

- System: P388
- assay: Antiproliferative activity against mouse adriamycin-resistant P388 cells after 48 hrs by XTT assay
- Type: functional, cell-based
- conditions.used: P388, 48 h
Assignment: determine reported IC50 for the given molecules.
State just the number; it will be interpreted in nM.

What value of IC50 has been recorded for this entry: `COc1ccc(S(=O)(=O)Oc2c3ccccc3cc3ccccc23)cc1` 270

What value of IC50 has been recorded for this entry: `COC(=O)Nc1nc2cc(C(=O)c3cccs3)ccc2[nH]1` 50

What value of IC50 has been recorded for this entry: `COc1ccc(S(=O)(=O)Oc2c3ccccc3cc3sccc23)cc1` 180

* * *

Assignment: determine reported IC50 for the given molecules.
- assay.target: Tubulin (Sus scrofa, UniProt P02554+P02550)
- assay: Inhibition of porcine brain tubulin polymerization
State just the number; it will be interpreted in nM.

What value of IC50 has been recorded for this entry: `Cc1ccc(S(=O)(=O)Oc2c3ccccc3cc3sccc23)cc1` 1050

What value of IC50 has been recorded for this entry: `COc1cccc(S(=O)(=O)Oc2c3ccccc3cc3ccccc23)c1` 390

What value of IC50 has been recorded for this entry: `COc1ccc(S(=O)(=O)Oc2c3ccccc3cc3sccc23)cc1` 910

What value of IC50 has been recorded for this entry: `Nc1ccc(S(=O)(=O)Oc2c3ccccc3cc3sccc23)cc1` 710
